What inhibition was measured for each of the following?
measurement.protocol: CRL2098 osteosarcoma cell growth inhibition, synergistic combos for chromothripsis tumors, BGB or cisplatin IC20 combos (AID 1671454);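 also: cells exposed for 96 h before readout; 0% = vehicle DMSO and 100% = killing by high DMSO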
condition.notes: CRL2098 osteosarcoma cells, drug combinations, measured here: combination with BGB at IC20, at 0.5 µM, stronger effect = higher value
Could you give the number and then its unit, please?

*Q* Requested field: inhibition. Item: "CC(=O)OCC(CCn1cnc2cnc(N)nc21)COC(C)=O"
*A* -9.88%

*Q* Requested field: inhibition. Item: CCN(CC)CCCC(C)Nc1c2ccc(Cl)cc2nc2ccc(OC)cc12 (centres undefined)
*A* -24.3%

*Q* Requested field: inhibition. Item: "O=c1[nH]cc(F)c(=O)[nH]1"
*A* -48.5%

*Q* Requested field: inhibition. Item: "O=C(O)CCCc1ccccc1"
*A* -54.3%

* * *

What liver cell % of control was measured for each of the following?
measurement.protocol: kinase inhibitors against Plasmodium liver-stage infection, cell-based, known kinase inhibitor set, luminescence, hepatoma host viability (AID 624392);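 also: infected cells incubated roughly two days before readout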
condition.notes: Plasmodium liver stage in hepatoma cells, luciferase luminescence, concentration not given here; measured here: host liver cell viability
// units = %; emit number, no label

*Q* Requested field: liver cell % of control. Item: "COc1cc2ncn(-c3cc(OCc4ccccc4S(C)(=O)=O)c(C#N)s3)c2cc1OC"
*A* 84.7

*Q* Requested field: liver cell % of control. Item: "Cn1cc(C2=C(c3cccc([N+](=O)[O-])c3)C(=O)NC2=O)c2ccccc21"
*A* 86.9

*Q* Requested field: liver cell % of control. Item: "Cn1cc(C2=C(c3ccc(N)cc3)C(=O)NC2=O)c2ccccc21"
*A* 135

*Q* Requested field: liver cell % of control. Item: "COc1cc2c(cc1Nc1nc(Nc3cccc(F)c3C(N)=O)c3cc[nH]c3n1)N(C(=O)CN1CCN(C(C)C)CC1)CC2"
*A* 73.3

*Q* Requested field: liver cell % of control. Item: "Cc1cccc2c(N=Nc3ccc(S(N)(=O)=O)cc3)c(O)[nH]c12"
*A* 89.8

*Q* Requested field: liver cell % of control. Item: "CC1(C)CC(n2cnc(-c3ccc(F)cc3)c2-c2ccnc(N)n2)CC(C)(C)N1"
*A* 79.9

*Q* Requested field: liver cell % of control. Item: "CCCN(CCS(C)(=O)=O)Cc1ccc(-c2ccc3ncnc(Nc4ccc(OCc5cccc(F)c5)c(Cl)c4)c3c2)o1"
*A* 100

*Q* Requested field: liver cell % of control. Item: "Fc1ccc(-c2ncn(C3CCNCC3)c2-c2ccnc(Oc3cccc(F)c3)n2)cc1"
*A* 80.2

*Q* Requested field: liver cell % of control. Item: "COc1cc2c(cc1Nc1nc(Nc3ccsc3C(N)=O)c3cc[nH]c3n1)N(C(=O)CN(C)C)CCC2"
*A* 54.7

*Q* Requested field: liver cell % of control. Item: "CC(=C1SC(=NCc2cccs2)NC1=O)c1ccc2ncccc2c1"
*A* 89.5

*Q* Requested field: liver cell % of control. Item: CC1=C(C(=O)Nc2ccc3[nH]ncc3c2)C(c2ccc(F)cc2)NC(=O)N1 (stereo not given)
*A* 105

*Q* Requested field: liver cell % of control. Item: "Cc1[nH]nc2c1N=C(c1ccccc1F)c1cc(C#N)ccc1N2"
*A* 96.8

*Q* Requested field: liver cell % of control. Item: "CS(=O)(=O)CCNCc1nc(-c2ccc3ncnc(Nc4ccc(OCc5cccc(C(F)(F)F)c5)cc4)c3c2)cs1"
*A* 96.4

*Q* Requested field: liver cell % of control. Item: "Cn1cc(C2=C(c3ccc4ccccc4c3)C(=O)NC2=O)c2ccccc21"
*A* 105

*Q* Requested field: liver cell % of control. Item: "O=C1NC(=NCCc2cccc(F)c2)SC1=Cc1ccc2ncccc2c1"
*A* 113

*Q* Requested field: liver cell % of control. Item: "c1ccc(-c2nc3n(c2-c2ccc4c(c2)OCO4)CCC3)nc1"
*A* 103

*Q* Requested field: liver cell % of control. Item: "CS(=O)(=O)CCNCc1ccc(-c2ccc3ncnc(Nc4ccc(OCc5cccc(C(F)(F)F)c5)cc4)c3c2)o1"
*A* 91.4

*Q* Requested field: liver cell % of control. Item: "O=S(=O)(CCOCc1ccc(-c2ccc3ncnc(Nc4ccc(OCc5cccc(F)c5)c(Cl)c4)c3c2)o1)c1ccccc1"
*A* 105

*Q* Requested field: liver cell % of control. Item: "O=C1NC(=NCCc2ccc(F)cc2)SC1=Cc1ccc2ncccc2c1"
*A* 127

*Q* Requested field: liver cell % of control. Item: "Cc1ccc(NC(=O)CC2CC2)cc1-c1ccc(C(=O)NCC2CC2)cc1"
*A* 75.5

* * *

target.system: ATP-dependent translocase ABCB1 (Homo sapiens) (UniProt P08183)
Sequence (P08183 whole entry, looked up): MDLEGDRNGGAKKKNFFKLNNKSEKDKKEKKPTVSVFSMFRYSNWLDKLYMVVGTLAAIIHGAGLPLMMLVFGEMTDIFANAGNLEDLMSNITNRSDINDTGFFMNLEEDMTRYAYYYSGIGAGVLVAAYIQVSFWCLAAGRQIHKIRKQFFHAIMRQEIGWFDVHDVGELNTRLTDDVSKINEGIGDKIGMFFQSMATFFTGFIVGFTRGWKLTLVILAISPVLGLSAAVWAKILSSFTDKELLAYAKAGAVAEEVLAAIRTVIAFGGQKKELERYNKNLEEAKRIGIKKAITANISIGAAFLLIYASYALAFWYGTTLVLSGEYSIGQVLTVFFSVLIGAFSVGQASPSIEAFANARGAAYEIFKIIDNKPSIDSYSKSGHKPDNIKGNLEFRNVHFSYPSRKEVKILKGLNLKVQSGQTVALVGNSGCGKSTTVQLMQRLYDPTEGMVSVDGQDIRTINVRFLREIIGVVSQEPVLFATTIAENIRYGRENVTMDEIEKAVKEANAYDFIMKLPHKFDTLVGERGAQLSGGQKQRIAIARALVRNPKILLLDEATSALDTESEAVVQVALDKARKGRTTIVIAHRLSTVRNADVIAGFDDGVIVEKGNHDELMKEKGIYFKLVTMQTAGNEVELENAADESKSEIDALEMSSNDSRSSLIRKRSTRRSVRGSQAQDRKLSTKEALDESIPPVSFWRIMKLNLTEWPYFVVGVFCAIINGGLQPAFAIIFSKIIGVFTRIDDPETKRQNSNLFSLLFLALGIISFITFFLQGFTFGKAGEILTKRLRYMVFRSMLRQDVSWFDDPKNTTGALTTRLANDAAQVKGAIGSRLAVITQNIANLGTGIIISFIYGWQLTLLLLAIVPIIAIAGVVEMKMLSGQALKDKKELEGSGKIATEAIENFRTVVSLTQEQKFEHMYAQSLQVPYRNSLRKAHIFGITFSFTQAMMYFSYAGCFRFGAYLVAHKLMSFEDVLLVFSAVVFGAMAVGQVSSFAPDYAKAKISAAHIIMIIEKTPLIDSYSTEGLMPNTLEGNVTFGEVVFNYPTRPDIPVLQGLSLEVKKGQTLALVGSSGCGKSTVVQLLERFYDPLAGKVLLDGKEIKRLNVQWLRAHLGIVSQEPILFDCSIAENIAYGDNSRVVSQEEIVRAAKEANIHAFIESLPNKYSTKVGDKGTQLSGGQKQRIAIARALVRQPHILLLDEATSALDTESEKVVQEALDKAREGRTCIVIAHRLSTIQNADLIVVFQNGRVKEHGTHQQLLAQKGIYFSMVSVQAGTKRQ
measurement.protocol: MDR1 (ABCB1) efflux transporter inhibition, cell-based (AID 377)
condition.notes: MDR1-expressing cells, fluorescent substrate accumulation slope; concentration not given here
Records with an inconclusive call do not appear. Calls of active or inactive are those of the source. Rule as the data show it: active = fluorescence slope change above about 50%; inconclusive = mostly about 31% to 49%; inactive = weaker than that.
// allowed return values: 1 (active), -1 (inactive)

*Q* Please share the test call associated with CC(C)(C)NCC(O)c1cc(O)cc(O)c1 (stereo not drawn) .
*A* -1

*Q* Please share the test call associated with "CN(C)CC/C=C1\c2ccccc2COc2ccccc21" .
*A* 1

*Q* Please share the test call associated with "CC(=O)CCCCn1c(=O)c2c(ncn2C)n(C)c1=O" .
*A* 1

*Q* Please share the test call associated with "C[C@H](CCC(=O)O)[C@H]1CC[C@H]2[C@@H]3C(=O)C[C@@H]4CC(=O)CC[C@]4(C)[C@H]3CC(=O)[C@]12C" .
*A* 1

*Q* Please share the test call associated with "CN(C)c1ccc(O)c2c1C[C@H]1C[C@H]3[C@H](N(C)C)C(=O)C(C(N)=O)=C(O)[C@@]3(O)C(=O)C1=C2O" .
*A* 1

*Q* Please share the test call associated with "Clc1ccc2c(c1)C(N1CCNCC1)=Nc1ccccc1O2" .
*A* 1

*Q* Please share the test call associated with "CS(=O)(=O)OCCCCOS(C)(=O)=O" .
*A* -1

*Q* Please share the test call associated with c1ccc2c(c1)CCCC2C1=NCCN1 (stereo not drawn) .
*A* -1

*Q* Please share the test call associated with "Nc1c2c(nc3ccccc13)CCCC2" .
*A* 1

*Q* Please share the test call associated with "COc1ccc([C@@H]2Sc3ccccc3N(CCN(C)C)C(=O)[C@@H]2OC(C)=O)cc1" .
*A* 1

*Q* Please share the test call associated with "O=C(CCCN1CC=C(n2c(=O)[nH]c3ccccc32)CC1)c1ccc(F)cc1" .
*A* 1

*Q* Please share the test call associated with "CC[N+](C)(C)c1cccc(O)c1" .
*A* 1

*Q* Please share the test call associated with O=C1C(CCS(=O)c2ccccc2)C(=O)N(c2ccccc2)N1c1ccccc1 (stereo not drawn) .
*A* 1

*Q* Please share the test call associated with O=C1CCC(N2C(=O)c3ccccc3C2=O)C(=O)N1 (stereo not drawn) .
*A* 1

*Q* Please share the test call associated with "CCS(=O)(=O)CCn1c([N+](=O)[O-])cnc1C" .
*A* -1

*Q* Please share the test call associated with OC(CCN1CCCCC1)(c1ccccc1)C1CCCCC1 (stereo not drawn) .
*A* 1

*Q* Please share the test call associated with "CCCN1C[C@H](CSC)C[C@@H]2c3cccc4[nH]cc(c34)C[C@H]21" .
*A* 1

*Q* Please share the test call associated with "Cc1ccc(Cl)c(Nc2ccccc2C(=O)O)c1Cl" .
*A* -1

*Q* Please share the test call associated with "CCN(CC)C(=S)SSC(=S)N(CC)CC" .
*A* 1

*Q* Please share the test call associated with "Cc1ccc(S(=O)(=O)NC(=O)NN2CCCCCC2)cc1" .
*A* -1

*Q* Please share the test call associated with NS(=O)(=O)c1cc2c(cc1C(F)(F)F)NC(Cc1ccccc1)NS2(=O)=O (stereo not drawn) .
*A* -1

*Q* Please share the test call associated with "CN[C@@H]1[C@H](O)[C@H](NC)[C@H]2O[C@@]3(O)C(=O)C[C@@H](C)O[C@H]3O[C@@H]2[C@H]1O" .
*A* 1

*Q* Please share the test call associated with "Oc1ccc(/C=C/c2cc(O)cc(O)c2)cc1" .
*A* -1

* * *

measurement.protocol: growth inhibition of BT084 medulloblastoma cells, cell-based, ICGC_MB145, cisplatin and BGB IC40 combos (AID 1671461);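 also: cells exposed to drugs for 96 hours; 0% = vehicle DMSO and 100% = high DMSO full killing control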
condition.notes: drug combinations, single agent, at 5 µM, stronger effect = higher value
Output yes (1) for inhibition not less than -10%; output no (0) otherwise.

*Q* Reported inhibition at or above -10%? "O=c1[nH]cc(F)c(=O)[nH]1"
*A* yes (1)

*Q* Reported inhibition at or above -10%? CCN(CC)CCCC(C)Nc1c2ccc(Cl)cc2nc2ccc(OC)cc12 (stereo not given)
*A* yes (1)

*Q* Reported inhibition at or above -10%? "CC(=O)OCC(CCn1cnc2cnc(N)nc21)COC(C)=O"
*A* no (0)

*Q* Reported inhibition at or above -10%? "O=C(O)CCCc1ccccc1"
*A* yes (1)

*Q* Reported inhibition at or above -10%? "CCn1cc(C(=O)O)c(=O)c2cc(F)c(N3CCNCC3)cc21"
*A* no (0)

Values from PubChem BioAssay
